biological target: vitamin D receptor (Sus scrofa, UniProt A3RGC1); details: percentage activity (at 50% of the dose response) in comparison with 1α,25(OH)2D3 (=100%)
Sequence (A3RGC1 whole entry): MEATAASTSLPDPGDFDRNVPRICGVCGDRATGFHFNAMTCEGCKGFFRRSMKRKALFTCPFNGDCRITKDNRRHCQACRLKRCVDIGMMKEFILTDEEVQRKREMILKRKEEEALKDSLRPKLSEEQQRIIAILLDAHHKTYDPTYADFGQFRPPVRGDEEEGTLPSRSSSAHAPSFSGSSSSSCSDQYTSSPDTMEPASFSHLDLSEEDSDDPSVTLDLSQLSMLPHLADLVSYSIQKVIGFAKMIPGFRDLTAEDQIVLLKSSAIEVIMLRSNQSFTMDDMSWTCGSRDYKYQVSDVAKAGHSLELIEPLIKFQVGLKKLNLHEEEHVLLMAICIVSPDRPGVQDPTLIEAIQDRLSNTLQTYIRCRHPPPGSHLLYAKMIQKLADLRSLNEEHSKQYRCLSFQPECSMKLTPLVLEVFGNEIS
Label scheme for AFFINITY STUDIES VDR: lower than 9% is FALSE, 9% and above is TRUE.

{"columns": ["MOLECULE", "CLASS"],
 "data": [
  ["CC(CCCC(C)(C)O)C1CCC2C(=CC=C3CC(O)C(C)C(O)C3)CCCC21C (centres unmarked) [Compound 101]", "TRUE"],
  ["CC(CC#CC(C)(C)O)C1CCC2C(=CC=C3CC(O)C(C)C(O)C3)CCCC21C (centres unmarked) [Compound 117]", "TRUE"],
  ["CCC1C(O)CC(=CC=C2CCCC3(C)C2CCC3C(C)CCCC(C)(C)O)CC1O (centres unmarked) [Compound 113]", "FALSE"],
  ["CC(CC#CC(C)(C)O)C1CCC2C(=CC=C3CC(O)C(C)C(O)C3)CCCC21C (centres unmarked) [Compound 118]", "FALSE"]
]}

* * *

We begin with a simple list: items and their reported IN VIVO STUDIES Calcium urine.
conditions: mouse, in vivo, ip
QUANTITY NAME: IN VIVO STUDIES Calcium urine (%)

{"columns": ["COMPOUND", "UNITS LABEL", "ENDPOINT RESULT"],
 "data": [
  ["CC(CC#CC(C)(C)O)C1CCC2C(=CC=C3CC(O)C(C)C(O)C3)CCCC21C (stereo not shown) [Compound 103]", "%", 1.6],
  ["CC(CCCC(C)(C)O)C1CCC2C(=CC=C3CC(O)C(C)C(O)C3)CCCC21C (stereo not shown) [Compound 106]", "%", 6],
  ["CC(CC#CC(C)(C)O)C1CCC2C(=CC=C3CC(O)C(C)C(O)C3)CCCC21C (stereo not shown) [Compound 107]", "%", 1.6],
  ["CCC1C(O)CC(=CC=C2CCCC3(C)C2CCC3C(C)CC#CC(C)(C)O)CC1O (stereo not drawn) [Compound 112, 2α-ethyl-19-nor-23-yne-1α,25(OH)2D3]", "%", 0.8]
]}

* * *

System: MCF-7 cells
Test: MCF-7 cell proliferation ([3H]thymidine incorporation)
Assay type: cell-based
Settings: percentage activity (at 50% of the dose response) vs 1α,25(OH)2D3 (=100%)
Protocol: To evaluate the effect of on cell proliferation, malignant MCF-7 cells were cultured in DMEM/nut. mix. […] Cultures were maintained at 37° C. in a humidified atmosphere of 5% CO2 in air. […] Then, 1 μCi [^3H]thymidine was added to each well and cells were harvested after 4 h incubation with a Packard harvester and measured by the Packard Topcount System (Packard, Meriden, USA).
QUANTITY NAME: Antiproliferative activity on MCF-7 cells (%)

{"columns": ["MOLECULE", "STUDY SYSTEM", "UNITS LABEL", "ENDPOINT RESULT"],
 "data": [
  ["CCC1C(O)CC(=CC=C2CCCC3(C)C2CCC3C(C)CC#CC(C)(C)O)CC1O (centres unmarked) [Compound 116]", "MCF-7 cells", "%", 3000],
  ["CCC1C(O)CC(=CC=C2CCCC3(C)C2CCC3C(C)CC#CC(C)(C)O)CC1O (centres unmarked) [Compound 115]", "MCF-7 cells", "%", 600],
  ["CC(CC#CC(C)(C)O)C1CCC2C(=CC=C3CC(O)C(C)C(O)C3)CCCC21C (centres unmarked)", "MCF-7 cells", "%", 900],
  ["CCC1C(O)CC(=CC=C2CCCC3(C)C2CCC3C(C)CC#CC(C)(C)O)CC1O (stereo not drawn) [Compound 111, 2β-ethyl-19-nor-23-yne-1α,25(OH)2D3]", "MCF-7 cells", "%", 700],
  ["C=C1/C(=C\\C=C2/CCC[C@]3(C)[C@@H]([C@H](C)CCCC(C)(C)O)CC[C@@H]23)C[C@@H](O)C[C@@H]1O [1α,25(OH)2D3, 1α,25-dihydroxyvitamin D3, reference compound]", "MCF-7 cells", "%", 100]
]}

* * *

target: vitamin D receptor (Sus scrofa, UniProt A3RGC1); settings: percentage activity (at 50% of the dose response) in comparison with 1α,25(OH)2D3 (=100%)

{"columns": ["COMPOUND", "AFFINITY STUDIES VDR (%)"],
 "data": [
  ["CC(CCCC(C)(C)O)C1CCC2C(=CC=C3CC(O)C(C)C(O)C3)CCCC21C (stereo not drawn) [Compound 105]", 60],
  ["CCC1C(O)CC(=CC=C2CCCC3(C)C2CCC3C(C)CC#CC(C)(C)O)CC1O (stereo not drawn) [Compound 111, 2β-ethyl-19-nor-23-yne-1α,25(OH)2D3]", 9],
  ["CCC1C(O)CC(=CC=C2CCCC3(C)C2CCC3C(C)CC#CC(C)(C)O)CC1O (stereo not drawn) [Compound 116]", 65],
  ["CC(CC#CC(C)(C)O)C1CCC2C(=CC=C3CC(O)C(C)C(O)C3)CCCC21C (stereo not drawn) [Compound 103]", 20],
  ["CCC1C(O)CC(=CC=C2CCCC3(C)C2CCC3C(C)CC#CC(C)(C)O)CC1O (stereo not drawn) [Compound 142]", 10],
  ["CC(CC#CC(C)(C)O)C1CCC2C(=CC=C3CC(O)C(C)C(O)C3)CCCC21C (stereo not drawn) [Compound 107]", 10],
  ["CC(CC#CC(C)(C)O)C1CCC2C(=CC=C3CC(O)C(C)C(O)C3)CCCC21C (stereo not drawn) [Compound 141]", 9],
  ["C[C@H](CCCC(C)(C)O)[C@H]1CC[C@@H]2/C(=C/C=C3C[C@@H](O)C[C@H](O)C3)CCC[C@@]21C [14-epi-19-nor-1α,25(OH)2D3, reference compound]", 19],
  ["CC(CC#CC(C)(C)O)C1CCC2C(=CC=C3CC(O)C(C)C(O)C3)CCCC21C (stereo not drawn) [Compound 104]", 70],
  ["CCC1C(O)CC(=CC=C2CCCC3(C)C2CCC3C(C)CCCC(C)(C)O)CC1O (stereo not drawn) [Compound 109, 2β-ethyl-19-nor-1α,25(OH)2D3]", 40],
  ["CCC1C(O)CC(=CC=C2CCCC3(C)C2CCC3C(C)CC#CC(C)(C)O)CC1O (stereo not drawn) [Compound 112, 2α-ethyl-19-nor-23-yne-1α,25(OH)2D3]", 55],
  ["CC(CCCC(C)(C)O)C1CCC2C(=CC=C3CC(O)C(C)C(O)C3)CCCC21C (stereo not drawn) [Compound 106]", 90],
  ["CCC1C(O)CC(=CC=C2CCCC3(C)C2CCC3C(C)CCCC(C)(C)O)CC1O (stereo not drawn) [Compound 110, 2α-ethyl-19-nor-1α,25(OH)2D3]", 90],
  ["CCC1C(O)CC(=CC=C2CCCC3(C)C2CCC3C(C)CCCC(C)(C)O)CC1O (stereo not drawn) [Compound 114, 2α-ethyl-14-epi-19-nor-1α,25(OH)2D3]", 30],
  ["CC(CCCC(C)(C)O)C1CCC2C(=CC=C3CC(O)C(C)C(O)C3)CCCC21C (stereo not drawn) [Compound 102]", 90]
]}

* * *

We begin with a simple list: items and their reported Serum calcium in mice.
details: mouse, in vivo, ip
QUANTITY NAME: Serum calcium in mice (%)

{"columns": ["MOLECULE", "ENDPOINT RESULT"],
 "data": [
  ["CC(CC#CC(C)(C)O)C1CCC2C(=CC=C3CC(O)C(C)C(O)C3)CCCC21C (centres unmarked)", 0.4],
  ["C=C1/C(=C\\C=C2/CCC[C@]3(C)[C@@H]([C@H](C)CCCC(C)(C)O)CC[C@@H]23)C[C@@H](O)C[C@@H]1O [1α,25(OH)2D3, 1α,25-dihydroxyvitamin D3, reference compound]", 100],
  ["CCC1C(O)CC(=CC=C2CCCC3(C)C2CCC3C(C)CC#CC(C)(C)O)CC1O (centres unmarked) [Compound 116]", 0.2],
  ["CCC1C(O)CC(=CC=C2CCCC3(C)C2CCC3C(C)CC#CC(C)(C)O)CC1O (stereo not drawn) [Compound 111, 2β-ethyl-19-nor-23-yne-1α,25(OH)2D3]", 0.4]
]}

* * *

We begin with a simple list: items and their reported IN VIVO STUDIES Calcium urine.
conditions: mouse, in vivo, ip
QUANTITY NAME: IN VIVO STUDIES Calcium urine (%)

{"columns": ["MOLECULE", "ENDPOINT RESULT"],
 "data": [
  ["CCC1C(O)CC(=CC=C2CCCC3(C)C2CCC3C(C)CCCC(C)(C)O)CC1O (stereo not drawn) [Compound 109, 2β-ethyl-19-nor-1α,25(OH)2D3]", 0.8],
  ["CCC1C(O)CC(=CC=C2CCCC3(C)C2CCC3C(C)CCCC(C)(C)O)CC1O (stereo not drawn) [Compound 114, 2α-ethyl-14-epi-19-nor-1α,25(OH)2D3]", 1],
  ["CCC1C(O)CC(=CC=C2CCCC3(C)C2CCC3C(C)CC#CC(C)(C)O)CC1O (stereo not drawn) [Compound 111, 2β-ethyl-19-nor-23-yne-1α,25(OH)2D3]", 0.8]
]}

Source: patent US20060189576A1
